molecular target: T1, human PD-L1 (full-length, on cells) (human, UniProt Q9NZQ7 19-290); assay: FACS blocking on huPDL1-CHO cells; blocked ligand PD-1-Biotin 1 µg/mL; MFI = bound PD-1
T1 construct: whole, on cells; Expressed on CHO-s cells; also called human PD-L1-CHO; PD-L1-CHO
T1 sequence (Q9NZQ7 19-290): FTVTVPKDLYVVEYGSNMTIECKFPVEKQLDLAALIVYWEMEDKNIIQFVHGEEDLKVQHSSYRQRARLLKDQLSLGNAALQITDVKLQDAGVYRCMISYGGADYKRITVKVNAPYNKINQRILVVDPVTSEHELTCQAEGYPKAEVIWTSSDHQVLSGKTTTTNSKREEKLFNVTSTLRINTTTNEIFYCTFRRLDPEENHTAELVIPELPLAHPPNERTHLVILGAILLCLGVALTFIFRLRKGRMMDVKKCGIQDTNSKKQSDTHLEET
REPORTED_METRIC: IC50 (read off the curve)

Please give IC50 (read off the curve) for each item listed below.
1. control antibody KN035 (antibody, V domains shown, also called KN035 (control); positive control KN035) VH: QVQLVESGGGLVQPGGSLRLSCAASGFTFSRRCKAWFRQAPGKERERVAKILTTSGSTYLADSVKGRFTISRDNSKNTVYLQMNSLRAEDTAVYYCAADSFEDPTCTLVTSSGAFQYWGQGTLVTVSS
2. NB22D-21-94 (Fc fusion, not shown: 'full-length antibodies' were constructed) EVQLVESGGGLVQPGGSLRLSCAASRTAGNIHGMHWYRQAPGKGREWVGSIFITGNTIVTDSVKGRFTISRDNAKNTLYLQMNTLRAEDTAVYYCAADVRGYGRAWGQGTTVTVSS

Result string:
["~0.2 µg/mL", "~0.2 µg/mL"]

The origin of these recorded values is patent US20230002494A1.
